- Test system: NCI-H226 complex tumor spheroids, viability
- assay summary: Anticancer human tumor NCI-H226 cell line growth inhibition;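 also: spheroids exposed to compound for 7 days; 100% = DMSO vehicle control viability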
- measurement parameters: second compound 31.6 µM; first compound 0.316 µM; stronger effect = lower value

{"columns": ["molecule", "unit of measure", "viability, T/C"],
 "data": [
  ["CC1COCCN1c1cc(-c2ccnn2C)c2ccnc(-c3ccn[nH]3)c2n1 (stereo unspecified) + Cn1nnc2c(C(N)=O)ncn2c1=O", "%", 74.7],
  ["COc1cc(C)[nH]c(=O)c1CN1CCc2c(Cl)cc(C(OC)C3COC3)c(Cl)c2C1=O (stereo unspecified) + Cn1nnc2c(C(N)=O)ncn2c1=O", "%", 132],
  ["Cc1cc(C)c(CNC(=O)c2cc(-c3ccc(CN4CCOCC4)cc3)cc3c2cnn3C2CCCC2)c(=O)[nH]1 + Cn1nnc2c(C(N)=O)ncn2c1=O", "%", 116],
  ["[2H]c1nc(C)nc([2H])c1-c1cc(NC[C@@H](C)c2cccc3c(C(=O)NC)ccnc23)ncn1 + Cn1nnc2c(C(N)=O)ncn2c1=O", "%", 119],
  ["CC(C)n1c(=O)n(C)c2cnc3cc(F)c(-c4ccc(OCCCN5CCCCC5)nc4)cc3c21 + Cn1nnc2c(C(N)=O)ncn2c1=O", "%", 110],
  ["COc1ccc([C@@H](O)c2cc(-c3ncnc4cc(N5CCOCC5)ccc34)c(F)cc2Cl)nn1 + Cn1nnc2c(C(N)=O)ncn2c1=O", "%", 91]
]}

* * *

- Tested on: NCI-H226 complex tumor spheroids, viability
- assay summary: Anticancer human tumor NCI-H226 cell line growth inhibition;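 also: spheroids exposed to compound for 7 days; 100% = DMSO vehicle control viability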
- measurement parameters: second compound 0.03 µM; first compound 0.0949 µM; stronger effect = lower value
Some compounds, each annotated with its measured viability, T/C.

{"columns": ["compound", "unit of measure", "viability, T/C"],
 "data": [
  ["Cn1ncnc1[C@H]1c2n[nH]c(=O)c3cc(F)cc(c23)N[C@@H]1c1ccc(F)cc1 + CC[C@@]1(O)C(=O)OCc2c1cc1n(c2=O)Cc2cc3c(CN(C)C)c(O)ccc3nc2-1", "%", 92.2],
  ["Cc1sc2c(c1C)C(c1ccc(Cl)cc1)=NC(CC(=O)Nc1ccc(O)cc1)c1nnc(C)n1-2 (centres undefined) + CC[C@@]1(O)C(=O)OCc2c1cc1n(c2=O)Cc2cc3c(CN(C)C)c(O)ccc3nc2-1", "%", 53.9],
  ["O=C(c1cc(Cc2n[nH]c(=O)c3ccccc23)ccc1F)N1CCN(C(=O)C2CC2)CC1 + CC[C@@]1(O)C(=O)OCc2c1cc1n(c2=O)Cc2cc3c(CN(C)C)c(O)ccc3nc2-1", "%", 88.9],
  ["CNCc1ccc(-c2cc(-c3nc(-c4ccc(S(=O)(=O)C(C)C)cc4)cnc3N)on2)cc1 + CC[C@@]1(O)C(=O)OCc2c1cc1n(c2=O)Cc2cc3c(CN(C)C)c(O)ccc3nc2-1", "%", 115]
]}

* * *

- Test system: NCI-H226 complex tumor spheroids, viability
- assay summary: Anticancer human tumor NCI-H226 cell line growth inhibition;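 also: spheroids exposed to compound for 7 days; 100% = DMSO vehicle control viability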
- measurement parameters: second compound 30 pM; first compound 10 µM; stronger effect = lower value
# strict inequality: viability, T/C < 50% yields True, everything else yields False

{"columns": ["compound", "assayed target", "qualitative label"],
 "data": [
  ["[2H]c1nc(C)nc([2H])c1-c1cc(NC[C@@H](C)c2cccc3c(C(=O)NC)ccnc23)ncn1 + COc1cc2c(cc1O)CCNC21CSC2c3c(OC(C)=O)c(C)c4c(c3C(COC1=O)N1C(O)C3Cc5cc(C)c(OC)c(O)c5C(C21)N3C)OCO4", "NCI-H226 complex tumor spheroids, viability", "False"],
  ["COc1cc(C)[nH]c(=O)c1CN1CCc2c(Cl)cc(C(OC)C3COC3)c(Cl)c2C1=O (stereo unspecified) + COc1cc2c(cc1O)CCNC21CSC2c3c(OC(C)=O)c(C)c4c(c3C(COC1=O)N1C(O)C3Cc5cc(C)c(OC)c(O)c5C(C21)N3C)OCO4", "NCI-H226 complex tumor spheroids, viability", "False"],
  ["CC1COCCN1c1cc(-c2ccnn2C)c2ccnc(-c3ccn[nH]3)c2n1 (stereo unspecified) + COc1cc2c(cc1O)CCNC21CSC2c3c(OC(C)=O)c(C)c4c(c3C(COC1=O)N1C(O)C3Cc5cc(C)c(OC)c(O)c5C(C21)N3C)OCO4", "NCI-H226 complex tumor spheroids, viability", "True"],
  ["COc1ccc([C@@H](O)c2cc(-c3ncnc4cc(N5CCOCC5)ccc34)c(F)cc2Cl)nn1 + COc1cc2c(cc1O)CCNC21CSC2c3c(OC(C)=O)c(C)c4c(c3C(COC1=O)N1C(O)C3Cc5cc(C)c(OC)c(O)c5C(C21)N3C)OCO4", "NCI-H226 complex tumor spheroids, viability", "True"],
  ["Cc1cc(C)c(CNC(=O)c2cc(-c3ccc(CN4CCOCC4)cc3)cc3c2cnn3C2CCCC2)c(=O)[nH]1 + COc1cc2c(cc1O)CCNC21CSC2c3c(OC(C)=O)c(C)c4c(c3C(COC1=O)N1C(O)C3Cc5cc(C)c(OC)c(O)c5C(C21)N3C)OCO4", "NCI-H226 complex tumor spheroids, viability", "False"]
]}

* * *

- System: NCI-H226 complex tumor spheroids, viability
- assay summary: Anticancer human tumor NCI-H226 cell line growth inhibition;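 also: spheroids exposed to compound for 7 days; 100% = DMSO vehicle control viability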
- measurement parameters: second compound 0.03 µM; first compound 0.0316 µM; stronger effect = lower value
Some molecules, each annotated with its measured viability, T/C.
observed property: viability, T/C (%)

{"columns": ["molecule", "readout number"],
 "data": [
  ["COc1ccc([C@@H](O)c2cc(-c3ncnc4cc(N5CCOCC5)ccc34)c(F)cc2Cl)nn1 + CC[C@@]1(O)C(=O)OCc2c1cc1n(c2=O)Cc2cc3c(CN(C)C)c(O)ccc3nc2-1", 79.6],
  ["Cc1cc(C)c(CNC(=O)c2cc(-c3ccc(CN4CCOCC4)cc3)cc3c2cnn3C2CCCC2)c(=O)[nH]1 + CC[C@@]1(O)C(=O)OCc2c1cc1n(c2=O)Cc2cc3c(CN(C)C)c(O)ccc3nc2-1", 91.8],
  ["CC(C)n1c(=O)n(C)c2cnc3cc(F)c(-c4ccc(OCCCN5CCCCC5)nc4)cc3c21 + CC[C@@]1(O)C(=O)OCc2c1cc1n(c2=O)Cc2cc3c(CN(C)C)c(O)ccc3nc2-1", 81.4],
  ["COc1cc(C)[nH]c(=O)c1CN1CCc2c(Cl)cc(C(OC)C3COC3)c(Cl)c2C1=O (stereo unspecified) + CC[C@@]1(O)C(=O)OCc2c1cc1n(c2=O)Cc2cc3c(CN(C)C)c(O)ccc3nc2-1", 86.4],
  ["[2H]c1nc(C)nc([2H])c1-c1cc(NC[C@@H](C)c2cccc3c(C(=O)NC)ccnc23)ncn1 + CC[C@@]1(O)C(=O)OCc2c1cc1n(c2=O)Cc2cc3c(CN(C)C)c(O)ccc3nc2-1", 79],
  ["CC1COCCN1c1cc(-c2ccnn2C)c2ccnc(-c3ccn[nH]3)c2n1 (stereo unspecified) + CC[C@@]1(O)C(=O)OCc2c1cc1n(c2=O)Cc2cc3c(CN(C)C)c(O)ccc3nc2-1", 83.1]
]}

* * *

- Test system: NCI-H226 complex tumor spheroids, viability
- assay summary: Anticancer human tumor NCI-H226 cell line growth inhibition;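 also: spheroids exposed to compound for 7 days; 100% = DMSO vehicle control viability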
- measurement parameters: second compound 0.03 µM; first compound 0.3 µM; stronger effect = lower value
Some compounds, each annotated with its measured viability, T/C.

{"columns": ["compound", "viability, T/C, %"],
 "data": [
  ["Cn1ncnc1[C@H]1c2n[nH]c(=O)c3cc(F)cc(c23)N[C@@H]1c1ccc(F)cc1 + CC[C@@]1(O)C(=O)OCc2c1cc1n(c2=O)Cc2cc3c(CN(C)C)c(O)ccc3nc2-1", 79.9],
  ["Cc1sc2c(c1C)C(c1ccc(Cl)cc1)=NC(CC(=O)Nc1ccc(O)cc1)c1nnc(C)n1-2 (centres undefined) + CC[C@@]1(O)C(=O)OCc2c1cc1n(c2=O)Cc2cc3c(CN(C)C)c(O)ccc3nc2-1", 54.2],
  ["O=C(c1cc(Cc2n[nH]c(=O)c3ccccc23)ccc1F)N1CCN(C(=O)C2CC2)CC1 + CC[C@@]1(O)C(=O)OCc2c1cc1n(c2=O)Cc2cc3c(CN(C)C)c(O)ccc3nc2-1", 90.4],
  ["CNCc1ccc(-c2cc(-c3nc(-c4ccc(S(=O)(=O)C(C)C)cc4)cnc3N)on2)cc1 + CC[C@@]1(O)C(=O)OCc2c1cc1n(c2=O)Cc2cc3c(CN(C)C)c(O)ccc3nc2-1", 123]
]}

* * *

- Test system: NCI-H226 complex tumor spheroids, viability
- assay summary: Anticancer human tumor NCI-H226 cell line growth inhibition;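 also: spheroids exposed to compound for 7 days; 100% = DMSO vehicle control viability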
- measurement parameters: second compound 0.003 µM; first compound 10 µM; stronger effect = lower value
- Experimental: Multicellular complex tumor spheroid response to DNA repair inhibitors in combination with DNA-damaging drugs This study explores the anticancer activities of DNA-damaging drugs and inhibitors of DNA damage repair, both as single agents and in combinations. […] Twenty-six patient-derived or established malignant cell lines were evaluated representing sarcoma, melanoma, small cell lung cancer (SCLC), non-small cell lung cancer (NSCLC), as well as bladder, ovarian and pancreatic cancers. […]
Some molecules, each annotated with its measured viability, T/C.

{"columns": ["molecule", "viability, T/C / %"],
 "data": [
  ["CC1COCCN1c1cc(-c2ccnn2C)c2ccnc(-c3ccn[nH]3)c2n1 (stereo not drawn) + CC[C@@]1(O)C(=O)OCc2c1cc1n(c2=O)Cc2cc3c(CN(C)C)c(O)ccc3nc2-1", 36.1],
  ["COc1ccc([C@@H](O)c2cc(-c3ncnc4cc(N5CCOCC5)ccc34)c(F)cc2Cl)nn1 + CC[C@@]1(O)C(=O)OCc2c1cc1n(c2=O)Cc2cc3c(CN(C)C)c(O)ccc3nc2-1", 34.7],
  ["Cc1cc(C)c(CNC(=O)c2cc(-c3ccc(CN4CCOCC4)cc3)cc3c2cnn3C2CCCC2)c(=O)[nH]1 + COc1cc2c(cc1O)CCNC21CSC2c3c(OC(C)=O)c(C)c4c(c3C(COC1=O)N1C(O)C3Cc5cc(C)c(OC)c(O)c5C(C21)N3C)OCO4", 0.44]
]}
